The reported measurements were obtained from patent US12522597B2.

- Tested on: MDR1
- test.method.notes: MDCK-MDR1 permeability assay (BBB penetration potential)
- Type: in vitro ADME
- assay.setup: dog, MDCK-MDR1, pH 7.4, MDCK-MDR1: Papp A-B
Form field: Papp A→B at 120 min, 5 μM (one value per entry).
Express the result in ×10⁻⁶ cm/s but write the number alone.

compound	system.under.test	quantitative.result
Oc1cc(-c2ccn3cnnc3c2)ccc1-c1ccc(O[C@H]2C[C@@H]3CCC[C@@H](N3)[C@H]2F)nn1 (single isomer, unassigned) [86-ENT2]	MDR1	0.42
Cn1ccc(-c2ccc(-c3ccc(O[C@@H]4C[C@H]5CCC[C@H](N5)[C@@H]4F)nn3)c(O)c2)n1 (single isomer, unassigned) [68-ENT1]	MDR1	8.61

Note to self: Papp A→B at 120 min, 5 μM recorded for Oc1cc(-c2nncs2)ccc1-c1ccc(O[C@H]2C[C@@H]3CCC[C@@H](N3)[C@H]2F)nn1 (single isomer, unassigned) [116-ENT2] was 11.3

----------
Form field: Papp B→A at 120 min, 5 μM (one value per entry).
- Test system: MDR1
- test.method.notes: MDCK-MDR1 permeability assay (BBB penetration potential)
- Format: in vitro ADME
- assay.setup: dog, MDCK-MDR1, pH 7.4, MDCK-MDR1: Papp B-A
Express the result in ×10⁻⁶ cm/s but write the number alone.

The examples below pair each entry with its known result.
molecule	readout	quantitative.result
Cn1ccc2cc(-c3ccc(O[C@H]4C[C@@H]5CC[C@@H](N5)[C@H]4F)nn3)c(O)cc2c1=O (single isomer, unassigned)	Papp B→A at 120 min, 5 μM	48.3
COc1cc(-c2ccc(-c3ccc(O[C@H]4C[C@@H]5CCC[C@@H](N5)[C@H]4F)nn3)c(O)c2)cnn1 (single isomer, unassigned)	Papp B→A at 120 min, 5 μM	39.9
Oc1cc(-n2ncc3ccccc32)ccc1-c1ccc(O[C@@H]2C[C@H]3CC[C@H](N3)[C@@H]2F)nn1 (single isomer, unassigned)	Papp B→A at 120 min, 5 μM	13.5
Cc1ccc(-c2ccc(-c3ccc(O[C@@H]4C[C@H]5CCC[C@H](N5)[C@@H]4F)nn3)c(O)c2)s1 (single isomer, unassigned)	Papp B→A at 120 min, 5 μM	0.68
Cc1nc(-c2ccc(-c3ccc(O[C@@H]4C[C@H]5CCC[C@H](N5)[C@@H]4F)nn3)c(O)c2)cs1 (single isomer, unassigned)	Papp B→A at 120 min, 5 μM	33.1

Note to self: Papp B→A at 120 min, 5 μM recorded for Cn1cc(-c2ccc(-c3ccc(O[C@@H]4C[C@@H]5CCC[C@@H](N5)[C@@H]4F)nn3)c(O)c2)cn1 (single isomer, unassigned) was 38.4

Note to self: Papp B→A at 120 min, 5 μM recorded for CNC(=O)c1ccc2cc(-c3ccc(O[C@H]4C[C@@H]5CCC[C@@H](N5)[C@H]4F)nn3)c(O)cc2n1 (single isomer, unassigned) was 62.3

Note to self: Papp B→A at 120 min, 5 μM recorded for Cc1ccc(-c2ccc(-c3ccc(O[C@H]4C[C@@H]5CCC[C@@H](N5)[C@H]4F)nn3)c(O)c2)o1 (single isomer, unassigned) was 6.02

Note to self: Papp B→A at 120 min, 5 μM recorded for Cc1cncc(-c2ccc(-c3ccc(O[C@H]4C[C@@H]5CCC[C@@H](N5)[C@H]4F)nn3)c(O)c2)c1 (single isomer, unassigned) was 34

Note to self: Papp B→A at 120 min, 5 μM recorded for Oc1cc(-c2cnn3ccccc23)ccc1-c1ccc(O[C@@H]2C[C@H]3CCC[C@H](N3)[C@@H]2F)nn1 (single isomer, unassigned) was 15.5

Note to self: Papp B→A at 120 min, 5 μM recorded for Cc1cncc(-c2ccc(-c3ccc(O[C@H]4C[C@@H]5CCC[C@@H](N5)[C@H]4F)nn3)c(O)c2)n1 (single isomer, unassigned) was 48.4

Note to self: Papp B→A at 120 min, 5 μM recorded for C[C@@]12CC[C@@](C)(N1)[C@@H](F)[C@@H](Oc1ccc(-c3ccc(C#N)cc3O)nn1)C2 (single isomer, unassigned) was 53

----------
Form field: MDCK-MDR1: % Recov B-A (one value per entry).
- System: MDR1-MDCK cell monolayers
- test.method.notes: MDCK-MDR1 permeability assay (BBB penetration potential)
- Assay type: in vitro ADME
- assay.setup: dog, MDCK-MDR1, 120 min, 5 μM, pH 7.4
- Description: Each determination is performed in duplicate. […] Analytical conditions are outlined below.
Express the result in % but write the number alone.

compound	system.under.test	readout	quantitative.result
Oc1cc2ncccc2cc1-c1ccc(O[C@H]2C[C@@H]3CCC[C@@H](N3)[C@H]2F)nn1 (single isomer, unassigned)	MDR1-MDCK cell monolayers	MDCK-MDR1: % Recov B-A	106

Note to self: MDCK-MDR1: % Recov B-A recorded for Oc1cc(-n2ccnc2)ccc1-c1ccc(O[C@@H]2C[C@H]3CC[C@H](N3)[C@@H]2F)nn1 (single isomer, unassigned) was 83

Note to self: MDCK-MDR1: % Recov B-A recorded for Cn1ccc(-c2ccc(-c3ccc(O[C@H]4C[C@@H]5CCC[C@@H](N5)[C@H]4F)nn3)c(O)c2)cc1=O (single isomer, unassigned) was 107

Note to self: MDCK-MDR1: % Recov B-A recorded for Oc1cc(-n2ccc(F)n2)ccc1-c1ccc(O[C@H]2C[C@@H]3CCC[C@@H](N3)[C@H]2F)nn1 (single isomer, unassigned) was 67

Note to self: MDCK-MDR1: % Recov B-A recorded for Cn1cc(-c2cc(O)c(-c3ccc(O[C@H]4C[C@@H]5CCC[C@@H](N5)[C@H]4F)nn3)c(F)c2)cn1 (single isomer, unassigned) was 80

Note to self: MDCK-MDR1: % Recov B-A recorded for Oc1cc(-c2cnccn2)ccc1-c1ccc(O[C@H]2C[C@@H]3CCC[C@@H](N3)[C@H]2F)nn1 (single isomer, unassigned) was 82

----------
- Test system: MDR1-MDCK cell monolayers
- test.method.notes: MDCK-MDR1 permeability assay (BBB penetration potential)
- Assay type: in vitro ADME
- assay.setup: dog, MDCK-MDR1, 120 min, 5 μM, pH 7.4
- Procedure: Each determination is performed in duplicate. […] Analytical conditions are outlined below.
readout: MDCK-MDR1: % Recov A-B
The number alone won't do; follow it with the unit.

compound	result
Cn1ccc(-c2cc(O)c(-c3ccc(O[C@@H]4C[C@H]5CCC[C@H](N5)[C@@H]4F)nn3)cc2F)cc1=O (single isomer, unassigned) [58-ENT1]	97%
Cn1cc(-c2ccc(-c3ccc(O[C@@H]4C[C@H]5CCC[C@H](N5)[C@@H]4F)nn3)c(O)c2)oc1=O (single isomer, unassigned) [97-ENT1]	83%
Cc1nocc1-c1ccc(-c2ccc(O[C@H]3C[C@@H]4CCC[C@@H](N4)[C@H]3F)nn2)c(O)c1 (single isomer, unassigned) [72-ENT1]	74%
O=c1cc(-c2ccc(-c3ccc(O[C@H]4C[C@@H]5CCC[C@@H](N5)[C@H]4F)nn3)c(O)c2)cc[nH]1 (single isomer, unassigned) [53-ENT2]	104%
Cn1ccc2cc(-c3ccc(O[C@@H]4C[C@@]5(C)CC[C@](C)(N5)[C@@H]4F)nn3)c(O)cc2c1=O (single isomer, unassigned) [127-ENT2]	89%

Note to self: MDCK-MDR1: % Recov A-B recorded for Oc1cc2cnccc2cc1-c1ccc(O[C@@H]2C[C@H]3CCC[C@H](N3)[C@@H]2F)nn1 (single isomer, unassigned) [80-ENT1] was 70%

----------
- System: MDR1
- test.method.notes: MDCK-MDR1 permeability assay (BBB penetration potential)
- Type: in vitro ADME
- assay.setup: dog, MDCK-MDR1, pH 7.4, MDCK-MDR1: Efflux
readout: efflux ratio at 120 min, 5 μM
Answer field: number only, no words.

Note to self: efflux ratio at 120 min, 5 μM recorded for O=c1cc(-c2cc(O)c(-c3ccc(O[C@@H]4C[C@H]5CCC[C@H](N5)[C@@H]4F)nn3)cc2F)cc[nH]1 (single isomer, unassigned) [57-ENT1] was 73

Note to self: efflux ratio at 120 min, 5 μM recorded for Cc1cc(-c2ccc(-c3ccc(O[C@H]4C[C@@H]5CCC[C@@H](N5)[C@H]4F)nn3)c(O)c2)ccn1 (single isomer, unassigned) [88-ENT2] was 4

Note to self: efflux ratio at 120 min, 5 μM recorded for CN(C)C(=O)c1cc2cc(O)c(-c3ccc(O[C@H]4C[C@]5(C)CCC[C@@](C)(N5)[C@H]4F)nn3)cc2o1 (single isomer, unassigned) [155-ENT2] was 17

Note to self: efflux ratio at 120 min, 5 μM recorded for Oc1cc2ccncc2cc1-c1ccc(O[C@@H]2C[C@H]3CCC[C@H](N3)[C@@H]2F)nn1 (single isomer, unassigned) [81-ENT1] was 3

Note to self: efflux ratio at 120 min, 5 μM recorded for Oc1cc(-c2cn[nH]c2)c(F)cc1-c1ccc(O[C@@H]2C[C@H]3CCC[C@H](N3)[C@@H]2F)nn1 (single isomer, unassigned) [56-ENT1] was 15

Note to self: efflux ratio at 120 min, 5 μM recorded for O=c1cc(-c2ccc(-c3ccc(O[C@H]4C[C@@H]5CCC[C@@H](N5)[C@H]4F)nn3)c(O)c2)cc[nH]1 (single isomer, unassigned) [53-ENT2] was 106
